details: in 2-methoxyethanol, 303.15 K
quantity kind: solubility (mole fraction)
Just the number, please, no unit attached.

Provide one value: measured solubility (mole fraction) of `CN1CCN(C2=Nc3cc(Cl)ccc3Nc3ccccc32)CC1`
0.0451

====

conditions: in 2-methoxyethanol, 298.15 K
quantity kind: solubility (mole fraction)
Just the number, please, no unit attached.

Provide one value: measured solubility (mole fraction) of `CN1CCN(C2=Nc3cc(Cl)ccc3Nc3ccccc32)CC1`
0.0422

====

conditions: in ethyl acetate, 308.15 K
quantity kind: solubility (mole fraction)
Just the number, please, no unit attached.

Provide one value: measured solubility (mole fraction) of `CN1CCN(C2=Nc3cc(Cl)ccc3Nc3ccccc32)CC1`
0.0181

====

details: in n-pentyl acetate, 298.15 K
quantity kind: solubility (mole fraction)

Provide one value: measured solubility (mole fraction) of `CN1CCN(C2=Nc3cc(Cl)ccc3Nc3ccccc32)CC1`
0.0198

====

conditions: in ethyl acetate, 313.15 K
quantity kind: solubility (mole fraction)
Just the number, please, no unit attached.

Provide one value: measured solubility (mole fraction) of `CN1CCN(C2=Nc3cc(Cl)ccc3Nc3ccccc32)CC1`
0.0203

====

details: in n-pentanol, 283.15 K
quantity kind: solubility (mole fraction)
Just the number, please, no unit attached.

Provide one value: measured solubility (mole fraction) of `CN1CCN(C2=Nc3cc(Cl)ccc3Nc3ccccc32)CC1`
0.00904

====

settings: in n-propyl acetate, 288.15 K
quantity kind: solubility (mole fraction)
Just the number, please, no unit attached.

Provide one value: measured solubility (mole fraction) of `CN1CCN(C2=Nc3cc(Cl)ccc3Nc3ccccc32)CC1`
0.014

====

conditions: in methyl acetate, 283.15 K
quantity kind: solubility (mole fraction)
Just the number, please, no unit attached.

Provide one value: measured solubility (mole fraction) of `CN1CCN(C2=Nc3cc(Cl)ccc3Nc3ccccc32)CC1`
0.00707

====

conditions: in 2-ethoxyethanol, 303.15 K
quantity kind: solubility (mole fraction)
Just the number, please, no unit attached.

Provide one value: measured solubility (mole fraction) of `CN1CCN(C2=Nc3cc(Cl)ccc3Nc3ccccc32)CC1`
0.0499

====

details: in n-propanol, 283.15 K
quantity kind: solubility (mole fraction)
Just the number, please, no unit attached.

Provide one value: measured solubility (mole fraction) of `CN1CCN(C2=Nc3cc(Cl)ccc3Nc3ccccc32)CC1`
0.00645

====

conditions: in 2-ethoxyethanol, 323.15 K
quantity kind: solubility (mole fraction)
Just the number, please, no unit attached.

Provide one value: measured solubility (mole fraction) of `CN1CCN(C2=Nc3cc(Cl)ccc3Nc3ccccc32)CC1`
0.0666

====

conditions: in 2-ethoxyethanol, 298.15 K
quantity kind: solubility (mole fraction)
Just the number, please, no unit attached.

Provide one value: measured solubility (mole fraction) of `CN1CCN(C2=Nc3cc(Cl)ccc3Nc3ccccc32)CC1`
0.0476

====

conditions: in n-butyl acetate, 283.15 K
quantity kind: solubility (mole fraction)

Provide one value: measured solubility (mole fraction) of `CN1CCN(C2=Nc3cc(Cl)ccc3Nc3ccccc32)CC1`
0.0136

====

settings: in ethanol, 278.15 K
quantity kind: solubility (mole fraction)
Just the number, please, no unit attached.

Provide one value: measured solubility (mole fraction) of `CN1CCN(C2=Nc3cc(Cl)ccc3Nc3ccccc32)CC1`
0.00466

====

settings: in n-propanol, 323.15 K
quantity kind: solubility (mole fraction)

Provide one value: measured solubility (mole fraction) of `CN1CCN(C2=Nc3cc(Cl)ccc3Nc3ccccc32)CC1`
0.019
